B1: GLTSCR2 (parent)
chain: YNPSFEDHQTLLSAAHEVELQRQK

# Variants of: B1
# Procedure Details: protein stability index of a GFP-peptide fusion (GPS, HEK-293T) (PSI 1-6); higher = more stable;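 further: lentivirally expressed fusions sorted by FACS into six bins by GFP to DsRed ratio, PSI derived from sequencing read proportions per bin multiplied by bin number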
# Test Settings: c terminus: a fixed tail appended
In this section we review reported protein stability index values for a set of variants.
Measured Property: protein stability index

YNPSFEDHQTLLSAALEVELQRQK	3.22
YNDSFEDHQTLLSAAHEVELQRQK	4.32
YNPSFEDHQTLLSAAHEVLLQRQK	2.28
YNPSFEIHQTLLSAAHEVELQRQK	3.21
YNTSFEDHQTLLSAAHEVELQRQK	5.01
YNPSFEDHQTLLSAAHEVECQRQK	3.99
YNPSFEDHQTLLSAAHEHELQRQK	3.28
YNPSFEDHQTLLSAVHEVELQRQK	2.53
YNPSFEDHVTLLSAAHEVELQRQK	3.24
YNPSFEDHQTLLSAAHEVELQFQK	3.43
YNPSFADHQTLLSAAHEVELQRQK	3.1
YNPSSEDHQTLLSAAHEVELQRQK	3.88
YNPSFEDHQTLLSAAHEVELQRQV	3.31
YNPSFEDHQTLLSAAHWVELQRQK	2.73
YNPSFEDHQTLLSAAHEVFLQRQK	2.49
YNPSFEDHQTLLSAAHEVEFQRQK	3.57
YNPSFEDHQHLLSAAHEVELQRQK	3.37
YNPSFEDHETLLSAAHEVELQRQK	4.45
YNPSFEDHQTLLSAAHEVELQRIK	3.23
YNPSFEDHSTLLSAAHEVELQRQK	4.09
YNPSFEDHQRLLSAAHEVELQRQK	2.59
YNPSFEDHQTLLSAAHEVELQREK	4.13
YNPSFEDHATLLSAAHEVELQRQK	3.79
YNPSPEDHQTLLSAAHEVELQRQK	4.02
YNPSFEDHQMLLSAAHEVELQRQK	2.87
YNPSFEDHQTLLSAAHNVELQRQK	3.33
YNPSFEDHQTLLSAAHEVELQMQK	3.4
YNPSFEDHQTLLSAAHENELQRQK	3.8
YNPSFEDHQTLLRAAHEVELQRQK	2.56
YNPSFEDHQTLLSAAHSVELQRQK	3.43
YNPSFEDHQTLLSAAHEVELQRQP	3.33
